# Experiment summary: NCI Yeast Anticancer Drug Screen. Data for the mlh1 rad18 strain (AID 175)
# Experimental parameters: S. cerevisiae mlh1 rad18 strain growth inhibition; at 50.0 µM
# Experimental: Growth inhibition of yeast strains with defined genetic alterations is measured as a screen for potential anti-cancer activity. Selected strains with alterations in DNA damage repair or cell cycle control were exposed to compounds and growth inhibition was measured relative to vehicle treated controls. The strain used in this assay is mlh1 rad18
This is part of a sample that, as a whole, favours compounds with a hit. Of some 79,000 tested, about 15% had one in any assay. Activity calls are given as the source filed them. No stated cut-off is given here; in the data, active means growth inhibition above about 70%; inactive means the rest.
Could you please pick one outcome from this set? active, inactive

>>> print(df.to_string())
                                  compound  class_name
0  [O-][n+]1c2ccccc2[n+]([O-])c2cc(O)ccc21    inactive

Enquiry: Test call, this compound: CC1(n2[nH]c(=O)n(-c3ccccc3)c2=O)Cn2c(=O)n(-c3ccccc3)c(=O)n2-c2ccccc21 (stereo unspecified)
Return: inactive

Enquiry: Tell me the recorded outcome of this test for Cc1cc(N(CCC#N)CCC#N)ccc1N=Nc1ccc(C(=O)O)cc1 .
Return: inactive

Enquiry: Dear all, I need the recorded test outcome for CCC(Cl)COP(=O)(CC(Cl)CC)OC(C)P(=O)(OCC(Cl)CC)OCC(Cl)CC (stereo unspecified) , thank you.
Return: active

Enquiry: // outcome(item) with item = CCOC(=O)C(C(=O)OCC)C(c1ccccc1)c1ccccc1OC (stereo unspecified)
Return: inactive

Enquiry: Returns: the outcome recorded for Cn1ncc2c(=O)[nH]c(NCCO)nc21 in this assay.
Return: inactive

Enquiry: What was the test verdict on Clc1ccc2c(c1)C(Nc1cc3c4ccccc4ccc3c3ccccc13)c1cc(Cl)cc(Cl)c1-2 (stereo unspecified) ?
Return: inactive

Enquiry: What did the test return for Cc1ccc(S(=O)(=O)N(CCO)CCCO)cc1 ?
Return: inactive

Enquiry: Hi team, can someone confirm the assay call for CCOc1ccc(Nc2ccc3c(O)cc(S(=O)(=O)O)cc3c2)cc1 ?
Return: inactive

Enquiry: Test call for this compound, please: O=C(Nc1ccc(F)cc1)C(=O)C(C(=O)c1ccccc1F)C1OC(=O)c2ccccc21 (stereo unspecified)
Return: inactive

Enquiry: For O=C1C=C/C(=N\N=C(c2ccccc2)c2ccccc2)O1 , what call appears in the results of this test?
Return: inactive

Enquiry: Status in this test for COC(c1ccccc1)(c1ccccc1)c1cc(NS(=O)(=O)c2ccccc2)ccc1NS(=O)(=O)c1ccccc1 ?
Return: inactive

Enquiry: What did this assay record as the result for CCOc1c(N=Nc2ccc(OC)cc2)c(C)nn1C(N)=S ?
Return: inactive

Enquiry: Name the outcome recorded for CC(=O)OC(C)C(C)Br (stereo unspecified) in the assay.
Return: inactive

Enquiry: Recorded test outcome, item COc1cc(/C=C2\CCC(CN(C)C)C2=O)ccc1OC(=O)c1ccccc1 (stereo unspecified)
Return: active

Enquiry: Test call for this compound, please: CCN(CC)CCOc1cc(C(C)C)ccc1C
Return: active

Enquiry: Called result for CCOc1ccc(C2=NN(CC)C(=O)C(C3C(=O)N(c4ccccc4)N=C3C)C2)cc1 (stereo unspecified)
Return: inactive

Enquiry: Tell me the recorded outcome of this test for C=CCC12CC(O)C(O)CC1(OC)OC(c1cc(OC)c(OC)c(OC)c1)C2C (stereo unspecified) .
Return: inactive

Enquiry: Given O=C(NNC(=S)Nc1ccccc1)c1nsc2ccccc12 , state the outcome it received in this test.
Return: inactive

Enquiry: What call does the record list for CN1CCC(CN)(c2ccccc2)CC1 ?
Return: inactive

Enquiry: Returns: the outcome recorded for Cc1cccc(NC(=O)Nc2ccccc2Cl)c1C in this assay.
Return: inactive

====

# Experiment summary: NCI Yeast Anticancer Drug Screen. Data for the cln2 rad14 strain (AID 165);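 further: 0% = growth equal to vehicle treated cultures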
# Experimental parameters: S. cerevisiae cln2 rad14 strain, at 50.0 µM, hits give high values
This is part of a sample that, as a whole, favours compounds with a hit. Of some 79,000 tested, about 15% had one in any assay.
Item-by-item account of growth inhibition
Enter your answer as a number in %; do not include the unit.

Solved entries:
In [3]: df
Out[3]:
                                   molecule      assay_readout  value_measured
0   CCOc1ccc(N2CCN(C(=O)Nc3ccccc3OC)CC2)cc1  growth inhibition           -47.5
1  Cc1ccc(Oc2ccc(C(=O)c3cccc(C(=O)c4ccc(Oc5ccc(C)cc5)cc4)n3)cc2)cc1  growth inhibition           -28.2
2  CCN1C(=O)/C(=C/c2cc([N+](=O)[O-])ccc2OCC(=O)O)SC1=S  growth inhibition           -42.8

Attention now shifts to the item below.
Lab book: growth inhibition of O=C(NN=C1c2ccccc2-c2ccccc21)C(F)(F)F noted as 31.2

====

# Experiment summary: NCI Yeast Anticancer Drug Screen. Data for the cln2 rad14 strain (AID 165);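 further: 0% = growth equal to vehicle treated cultures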
# Experimental parameters: S. cerevisiae cln2 rad14 strain, at 50.0 µM, hits give high values
# Method: Growth inhibition of yeast strains with defined genetic alterations is measured as a screen for potential anti-cancer activity. Selected strains with alterations in DNA damage repair or cell cycle control were exposed to compounds and growth inhibition was measured relative to vehicle treated controls. The strain used in this assay is cln2 rad14
This is part of a sample that, as a whole, favours compounds with a hit. Of some 79,000 tested, about 15% had one in any assay.
Assay readout: growth inhibition (%)
Reply with just the number (in %).

// worked examples, growth inhibition included
>>> print(df.to_string())
                                   compound  unit_symbol  value_measured
0      O=c1[nH]c(=O)n(COCc2ccccc2)c2ccccc12            %            12.7
1             Cc1c(Cl)ccc([N+](=O)[O-])c1Cl            %            18.3
2  COc1cc2[nH]c(-c3ccccc3)cc(=O)c2c(OC)c1OC            %            0.25
3  CC(C)Oc1c(O)c2c3c(oc(=O)n3C=CC2c2ccccc2)c1OC(C)C (stereo not given)            %            86.6
4                  CSc1nc2cc(C)c(C)cc2[nH]1            %           -25.5

Kindly note the recorded growth inhibition for OCC1=CCCCC1 , which is 12.7

====

molecules and their reported growth inhibition
# Experiment summary: NCI Yeast Anticancer Drug Screen. Data for the cln2 rad14 strain (AID 165);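 further: 0% = growth equal to vehicle treated cultures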
# Experimental parameters: S. cerevisiae cln2 rad14 strain, at 50.0 µM, hits give high values
This is part of a sample that, as a whole, favours compounds with a hit. Of some 79,000 tested, about 15% had one in any assay.
Entry rule: numbers only, all in %.

Completed entries (count: 4):
>>> print(df.to_string())
                                   molecule  unit_symbol  value_measured
0        CCC1(CC)C(=O)NN(C(=O)c2ccccc2)C1=O            %            13.6
1              C/C(O)=C(\N=Nc1ccccc1)C(N)=O            %           -28.9
2  COc1cc(N)c2c(c1)SC(c1ccccc1)C(=O)N2 (stereo not given)            %            14.1
3                 N=c1ccc([N+](=O)[O-])cn1O            %           -41.5

With those in mind, consider the next molecule.
Kindly note the recorded growth inhibition for NC(=O)NC12CC3CC(CC(F)(C3)C1)C2 , which is -0.95

====

# Experiment summary: NCI Yeast Anticancer Drug Screen. Data for the bub3 strain (AID 167)
# Experimental parameters: S. cerevisiae bub3 mutant strain, at 50.0 µM, hits give high values
About 79,000 compounds went through this panel and 15% of them were active in at least one assay; those are over-represented in the sample as a whole.
Assay readout: growth inhibition (%)
Unit % implied. Number only.

Guide cases for growth inhibition, answers given:
>>> print(df.to_string())
                                   compound  unit_symbol  value_measured
0                N=C(N)n1[nH]c2c(c1=O)CCCC2            %            2.85
1  COc1ccc(N=N/C(=N/NC(=O)c2ccccc2)c2ccc(N(CCC#N)CCC#N)cc2C)cc1            %           -23.1
2  CN(C(=O)C12C3C4C1C1C2C3C41C(N)=O)C(C)(C)C (stereo not drawn)            %            18.5
3           N#Cc1ccc(/C=C\c2ccc(C#N)cc2)cc1            %             1.2
4  CC(Oc1ccc2cc(C(=O)c3ccccc3)c(=O)oc2c1)C(=O)O (stereo not drawn)            %            -0.1
5  CC(=N/NC(=S)NCCN1CCCC1)/C(C)=N\NC(=S)NCCN1CCCC1            %            12.7

Value of growth inhibition reported for the compound CC[N+](C)(CC)c1ccccc1 is -33.5

The measured growth inhibition associated with CCCCCCCCCCCCCCOc1ccc2ccccc2c1 reads -6.05
